Assayed System: T1, PSMA Fab (006 PSMA Fab)
T1 construct: also called Anti-PSMA Fab; anti-PSMA Fab
Assay Text: clonal phage ELISA; biotinylated PSMA Fab on neutravidin plate, wells pre-incubated with PSMA antigen as competitor; anti-M13 HRP detection;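 also: crude clonal phage supernatants added to antigen-treated wells without a wash, incubated briefly, then bound phage read out via horse radish–conjugated anti-M13 antibody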
Label NOT MET if Phage binding ELISA signal, Anti-PSMA Fab in presence of PSMA antigen falls below 0.07; label MET in every other case.

# Binder, Label Value
records = [
    ("WEKWCTPSWMCSAG (Row prints W E K W - T - S - - - S A G) [Phage-2526]", "MET"),
    ("SLELCRPEWMCVGF (Row prints S L E - - R - E - - - V - -) [Phage-2513]", "MET"),
    ("VPIWCTPEWMCSGF (Row prints V P I W - T - E - - - S - -) [Phage-2519]", "MET"),
    ("LTQWCIPQWMCEGS (Row prints L T Q W - I - Q - - - E - S) [Phage-2515]", "NOT MET"),
    ("VDNWCTPMWMCAWI (Row prints V D N W - T - M - - - - W I) [Phage-2517]", "MET"),
]
